Listed here: compounds with reported Kd for Proto-oncogene tyrosine-protein kinase receptor Ret (Homo sapiens).
I only need the number, in nM, no unit after it.

Notebook: "CC(C)(C)c1cc(NC(=O)Nc2ccc(-c3cc(-c4ccc(OCCN5CCOCC5)cc4)[nH]n3)cc2F)no1" , Kd read as 8.1

response.value for "CC(C)(C)c1cc(NC(=O)Nc2ccc(-c3cc(-c4ccc(OCCN5CCOCC5)cc4)[nH]n3)c(Cl)c2)no1" (field: Kd) = 16

Summary for this compound, "CC(C)(C)c1cc(NC(=O)Nc2ccc(-c3cc(-c4ccc(OCCN5CCOCC5)c(Cl)c4)[nH]n3)cc2)no1" : Kd is 9.4

Lookup result for "COc1cc(-c2cc(-c3ccc(NC(=O)Nc4cc(C(C)(C)C(F)(F)F)on4)c(F)c3)n[nH]2)ccc1OCCN1CCOCC1" ; measured Kd: 9

Further cases:
According to the records, this compound "CC(C)(C)c1cc(NC(=O)Nc2ccc(-c3cc(-c4ccc(OCCN5CCOCC5)c(F)c4)[nH]n3)cc2)no1" displays Kd of 9.7

The reported measurements were obtained from ChEMBL document CHEMBL5346912.
